Numbers sourced from PubChem BioAssay AID248.

System: L1210 leukemia ip in BDF1 mice, survival T/C
Assay: NCI In Vivo Anticancer Drug Screen. Data for tumor model L1210 Leukemia (intraperitoneal) in B6D2F1 (BDF1) mice
Assay setup: endpoint: mean survival time; dose: 200.0 mg/kg/injection; schedule: Q04DX003 (ip); vehicle: saline with Tween-80; higher = longer survival
Toxic doses and inconclusive results are not listed.
List of T/C values.

Incoming: Please report the measured T/C for O=C(COc1ccc(Cl)c(Cl)c1)NCc1ccc[n+](Cc2ccc([N+](=O)[O-])cc2)c1
Outgoing: 91 % of control

Incoming: Please report the measured T/C for O=C(C1C2C=CC(C2)C1C(=O)N1CCCCC1)N1CCCCC1 (stereo unspecified)
Outgoing: 86 % of control

Incoming: Please report the measured T/C for CCCCOB(OCCCC)C(C)C(C#N)C#N (stereo unspecified)
Outgoing: 98 % of control

Incoming: Please report the measured T/C for OC12CC(C(F)(F)F)(C(F)(F)F)OC1(O)CC(C(F)(F)F)(C(F)(F)F)O2 (stereo unspecified)
Outgoing: 89 % of control

Incoming: Please report the measured T/C for CCOC(=O)NOS(=O)(=O)c1ccc([N+](=O)[O-])cc1
Outgoing: 96 % of control

Incoming: Please report the measured T/C for C#CC1(OC(=O)Nc2cc3ccccc3o2)CCCCC1
Outgoing: 95 % of control

Incoming: Please report the measured T/C for Cc1c(Cl)cccc1NC(=O)NCCc1ccccc1
Outgoing: 101 % of control

Incoming: Please report the measured T/C for O=C(CCCl)Nc1cccc2c1C(=O)c1c(c(O)c3ccccc3c1O)C2=O
Outgoing: 92 % of control

Incoming: Please report the measured T/C for CCCCC(CC)CO.[Ti] (stereo unspecified)
Outgoing: 96 % of control

Incoming: Please report the measured T/C for NC(=O)NC1CCCCCC1
Outgoing: 91 % of control

Incoming: Please report the measured T/C for CCOC(=O)C(=O)c1c[nH]c2ccccc12
Outgoing: 97 % of control

###

Test system: L1210 leukemia ip in BDF1 mice, survival T/C
Assay: NCI In Vivo Anticancer Drug Screen. Data for tumor model L1210 Leukemia (intraperitoneal) in B6D2F1 (BDF1) mice
Assay setup: endpoint: mean survival time; dose: 200.0 mg/kg/injection; schedule: Q04DX003 (ip); vehicle: other; higher = longer survival
Inconclusive results and toxic doses are left out.
Quantity name: T/C

// worked examples, T/C included
                                   molecule                           measured_target  quantity_name            result
0  COc1ccc(C2(c3ccccc3)OC(=O)c3ccccc32)c2ccccc12 (stereo not given)  L1210 leukemia ip in BDF1 mice, survival T/C            T/C  100 % of control
1    CNS(=O)(=O)c1ccc(NC(=O)C(Cl)(Cl)Cl)cc1  L1210 leukemia ip in BDF1 mice, survival T/C            T/C  101 % of control
2          Cc1ccc(CN(CC(=O)O)S(C)(=O)=O)cc1  L1210 leukemia ip in BDF1 mice, survival T/C            T/C   97 % of control
3                         CCOc1ccccc1C(N)=O  L1210 leukemia ip in BDF1 mice, survival T/C            T/C  104 % of control

Moving on to the next molecule.
Incoming: Enter recorded T/C with L1210 leukemia ip in BDF1 mice, survival T/C for CS(=O)(=O)N(CC(=O)O)Cc1cccnc1 here.
Outgoing: 93 % of control
